Every entry's value here was drawn from ChEMBL document CHEMBL1275366.

# Tested on: Plasmodium falciparum
# assay comment: Antiplasmodial activity against chloroquine-resistant Plasmodium falciparum W2 infected in human erythrocytes assessed as reduction in parasitaemia after 48 hrs by FACS
# Assay type: functional, organism-based
# experimental setup: W2, 48 h
I'd be grateful if you could share measured pIC50 for these entries.
Bear in mind: pIC50 is minus log10 of a mol/L concentration; give just that figure.

Query C[C@@H]1[C@H]2[C@H]3OC[C@H](C)[C@@]34C=C[C@](C)(OO4)[C@H]2C[C@@H]1O yields pIC50 of 6.24

pIC50 reading for COc1ccc(CO[C@H]2C[C@H]3[C@@H]([C@H]2C)[C@H]2OC[C@H](C)[C@@]24CC[C@]3(C)OO4)cc1 : 5.12

get_value(item= COc1ccc(CO[C@H]2C[C@H]3[C@@H]([C@H]2C)[C@@H](O)[C@@]2([C@@H](C)CO)C=C[C@]3(C)OO2)cc1 , readout=pIC50) returns 5.04

Recorded result, CCO[C@H]1O[C@@H]2[C@@H]3[C@@H](C)[C@@H](OCc4ccc(OC)cc4)C[C@@H]3[C@]3(C)C=C[C@]2(OO3)[C@H]1C , pIC50: 7.89

Sample C[C@H]1C(=O)C[C@H]2[C@@H]1[C@H]1OC(=O)[C@H](C)[C@@]13CC[C@]2(C)OO3 ; pIC50 observed: 6.57

Notebook: CC(=O)OC[C@H](C)[C@]12C=C[C@](C)(OO1)[C@H]1CC(=O)[C@H](C)[C@H]1C2=O , pIC50 read as 5.34

Given item CCO[C@H]1O[C@@H]2[C@@H]3[C@@H](C)[C@@H](OCc4ccc(OC)cc4)C[C@@H]3[C@]3(C)CC[C@]2(OO3)[C@H]1C , the value recorded as its pIC50 is 7.62
